assay: Luminescence activity assay of purified Gaussia luciferase mutants on coelenterazine derivative ZS2; format: biochemical; set-up: key: ratio of mutant luminescence intensity to wild-type Gaussia luciferase; conditions: Substrate ZS2 (Table 16)
The molecules listed here are annotated with their Activity of mutant relative to wild-type Gaussia luciferase without the signal peptide.
Answer with a bare number; do not write a unit.

H79K P84A E102S S103I A104G E110P L124M: Gaussia luciferase mutant (protein, SIGNAL (1)..(17), Gaussia luciferase mutant) MGVKVLFALICIAVAEAKPTENNEDFNIVAVASNFATTDLDADRGKLPGKKLPLEVLKEMEANARKAGCTRGCLICLSKIKCTAKMKKFIPGRCHTYEGDKSIGQGGIGPAIVDIPEIPGFKDMEPMEQFIAQVDLCVDCTTGCLKGLANVQCSDLLKKWLPQRCATFASKIQGQVDKIKGAGGD
0.001

Alright, here's another molecule for you.
// sample P53L: Gaussia luciferase mutant (protein, SIGNAL (1)..(17), Gaussia luciferase mutant) MGVKVLFALICIAVAEAKPTENNEDFNIVAVASNFATTDLDADRGKLPGKKLLLEVLKEMEANARKAGCTRGCLICLSHIKCTPKMKKFIPGRCHTYEGDKESAQGGIGEAIVDIPEIPGFKDLEPMEQFIAQVDLCVDCTTGCLKGLANVQCSDLLKKWLPQRCATFASKIQGQVDKIKGAGGD , its Activity of mutant relative to wild-type Gaussia luciferase without the signal peptide was 0.002

Cited source for all entries: patent US20250066745A1
